Listing of entries alongside the reported Selectivity v. Coll-3.
# SUBJECT_OF_TEST: T1, human Gelatinase-A (human, UniProt P08253 110-660, limits assumed)
# T1 sequence (looked up): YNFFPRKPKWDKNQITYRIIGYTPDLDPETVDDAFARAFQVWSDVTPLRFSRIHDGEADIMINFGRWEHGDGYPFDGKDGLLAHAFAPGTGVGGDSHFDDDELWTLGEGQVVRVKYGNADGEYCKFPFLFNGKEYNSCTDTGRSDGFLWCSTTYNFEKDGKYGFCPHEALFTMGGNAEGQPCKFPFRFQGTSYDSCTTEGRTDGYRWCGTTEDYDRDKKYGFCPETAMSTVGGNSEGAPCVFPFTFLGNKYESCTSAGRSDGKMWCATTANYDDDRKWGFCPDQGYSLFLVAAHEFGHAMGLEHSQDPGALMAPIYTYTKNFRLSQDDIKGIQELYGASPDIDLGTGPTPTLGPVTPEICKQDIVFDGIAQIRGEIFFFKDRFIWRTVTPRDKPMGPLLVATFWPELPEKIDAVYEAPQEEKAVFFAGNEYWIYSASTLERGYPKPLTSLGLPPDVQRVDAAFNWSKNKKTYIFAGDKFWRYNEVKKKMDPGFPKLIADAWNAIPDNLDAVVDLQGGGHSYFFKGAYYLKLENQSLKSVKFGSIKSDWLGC
# MEASUREMENT_PROTOCOL: cell-based or functional assay
*1 amine or outer side, *2 acyl side, *3 side chain or, on linkers, in order; H or OH if unused. [ ]: non-standard residue; d: D form. The star is where a group is joined. Dnp = O=[N+]([O-])c1ccc(*)c([N+](=O)[O-])c1; C(Me) = CSC[C@H](N[*:1])C(=O)[*:2]
Your answer should be a plain number; it is taken to be in unitless.

BINDER	QUANTITY_UNIT	Selectivity v. Coll-3
Dnp-GPLPFRG[C(Me)]-NH2 (SMILES CSC[C@H](NC(=O)CNC(=O)[C@H](CCCNC(=N)N)NC(=O)[C@H](Cc1ccccc1)NC(=O)[C@@H]1CCCN1C(=O)[C@H](CC(C)C)NC(=O)[C@@H]1CCCN1C(=O)CNc1ccc([N+](=O)[O-])cc1[N+](=O)[O-])C(N)=O) [Dnp-GPLPFRGC(Me)-NH2]	unitless	16
Dnp-GPINLHG-NH2 (SMILES CC[C@H](C)[C@H](NC(=O)[C@@H]1CCCN1C(=O)CNc1ccc([N+](=O)[O-])cc1[N+](=O)[O-])C(=O)N[C@@H](CC(N)=O)C(=O)N[C@@H](CC(C)C)C(=O)N[C@@H](Cc1c[nH]cn1)C(=O)NCC(N)=O) [Dnp-GPINLHG-NH2]	unitless	28

IN: Which measured Selectivity v. Coll-3 value corresponds to Dnp-GPHPFRG-NH2 (SMILES N=C(N)NCCC[C@H](NC(=O)[C@H](Cc1ccccc1)NC(=O)[C@@H]1CCCN1C(=O)[C@H](Cc1c[nH]cn1)NC(=O)[C@@H]1CCCN1C(=O)CNc1ccc([N+](=O)[O-])cc1[N+](=O)[O-])C(=O)NCC(N)=O) [Dnp-GPHPFRG-NH2] ?
OUT: 17
